molecular target: BRD4 (BDII_E352-M457) (Homo sapiens, UniProt O60885); construct: protocol; made in house; test: TR-FRET bromodomain binding assay, second bromodomain of BRD4; conditions: TR-FRET assay protocol G (compound 0.92 μM-15 pM); 30 nM probe

- COMPOUND: "CN(NC(=O)CCC1c2c[nH]c3c(=O)n(C)cc(c23)-c2cc(CS(C)(=O)=O)ccc2N1c1ccc(F)cc1F)c1ccccc1 (stereo not shown) [Example 122]"
  MEASURED TARGET: "BRD4 (BDII_E352-M457) (Homo sapiens, UniProt O60885)"
  Ki / nM: 0.922
- COMPOUND: "COC(=O)CCC(=O)N1Cc2c[nH]c3c(=O)n(C)cc(c23)-c2cc(CS(C)(=O)=O)ccc21 [Example 111]"
  MEASURED TARGET: "BRD4 (BDII_E352-M457) (Homo sapiens, UniProt O60885)"
  Ki / nM: 3.31
- COMPOUND: "CN1CCC(N2Cc3c[nH]c4c(=O)n(C)cc(c34)-c3cc(CS(C)(=O)=O)ccc32)C1 (stereo not shown) [Example 187]"
  MEASURED TARGET: "BRD4 (BDII_E352-M457) (Homo sapiens, UniProt O60885)"
  Ki / nM: 50
- COMPOUND: "Cn1cc2c3c(c[nH]c3c1=O)C(CNC(=O)c1ccccc1)N(c1ccc(F)cc1F)c1ccc(CS(C)(=O)=O)cc1-2 (stereo not shown) [Example 137]"
  MEASURED TARGET: "BRD4 (BDII_E352-M457) (Homo sapiens, UniProt O60885)"
  Ki / nM: 3.87

Values were extracted from patent US10035800B2.
